Source of measurements: the supplement of paper PMC4466140

- TESTED_SYSTEM: CaBem1-D1
- ASSAY_NAME: SPOT peptide array binding signal intensity (averaged, normalized) (arbitrary units (background-subtracted, floor 0; scale differs between SH3 domains)); higher = stronger binding of the SH3 domain to the peptide
Recorded SPOT peptide array binding signal intensity, one value per entry.

Examples with answers:
LLLLFVPDSPYDPAI :: ≤ 0
NNFYRPLLRSVLVLL :: ≤ 0

input: Data request, read-out SPOT peptide array binding signal intensity, for `PHNPSPFFPPPDFND`
output: ≤ 0
